# systemUnderTest: ROCK1 (Homo sapiens)
# Construct: purchased Upstate/Chemicon 14-601
# Sequence (Q13464 17-535 limits assumed): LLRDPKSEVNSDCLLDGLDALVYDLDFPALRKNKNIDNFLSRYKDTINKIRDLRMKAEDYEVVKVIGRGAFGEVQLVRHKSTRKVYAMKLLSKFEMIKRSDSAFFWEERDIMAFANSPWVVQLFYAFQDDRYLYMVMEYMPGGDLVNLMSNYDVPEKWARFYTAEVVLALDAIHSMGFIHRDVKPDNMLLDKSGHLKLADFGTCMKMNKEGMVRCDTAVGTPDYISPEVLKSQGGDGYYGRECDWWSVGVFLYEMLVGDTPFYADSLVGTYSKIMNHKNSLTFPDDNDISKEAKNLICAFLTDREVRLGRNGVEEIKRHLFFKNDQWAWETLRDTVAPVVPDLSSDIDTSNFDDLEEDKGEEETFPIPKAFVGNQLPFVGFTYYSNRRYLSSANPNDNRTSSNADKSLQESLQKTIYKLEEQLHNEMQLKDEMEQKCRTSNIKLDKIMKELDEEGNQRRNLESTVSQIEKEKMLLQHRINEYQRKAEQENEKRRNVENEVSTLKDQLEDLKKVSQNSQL
# assayProcedure: Rho kinase inhibition assay (IMAP fluorescence polarization), ROCK1
# Format: biochemical

{"columns": ["compound", "Ki (nM)"],
 "data": [
  ["Cc1ccc(CN2CC[C@@H](Nc3cccc4cnccc34)C2)cc1OCCO [Compound 2.064]", 4.1]
]}

----------
# assayProcedure: Compound plasma concentrations in unsensitized mice at 15 min post administration
# Type: in vivo
# cond: mouse, 15 μmol/kg; mean plasma concentration in mice at 15 minutes post oral administration; read-out: Mouse Oral PK

{"columns": ["entrySmiles", "concentration at 15 min"],
 "data": [
  ["Cc1ccc(CN2CC[C@@H](Nc3cccc4cnccc34)C2)cc1OCCO", "202 nM"]
]}

Reference for the values: patent US20090325960A1
